system: chymotrypsin-like sites (β5) of proteasome in MM cells; construct: other: NCI-H929; bortezomib 100 nM 1 h; bortezomib 11 nM 1 h; bortezomib 3.7 nM 1 h; bortezomib 33 nM 1 h; other: NCI-H9; assay: PROTEASOMEGLO assay of proteasome inhibition in MM cells; assay type: cell-based; settings: RPMI-8226 cells, 6 hours; >>30 no inhibition at 30 μM, >30 inhibition 10-50% at 30 μM; read-out: IC50 for sites: Chym-L
pIC50: −log10 of the molar value.
reported-metric: pIC50

Query string: # pIC50 lookup, item Cc1c(O)cccc1C(=O)N[C@H](C(=O)N[C@@H](CO)C(=O)N[C@@H](CCCNC(=N)N)C(=O)[C@@]1(C)CO1)C(C)C
Result string: < 4.52

---

biological target: caspase-like site of 26S proteasomes (Oryctolagus cuniculus); experiment: Inhibition of purified 26S proteasomes, substrate Ac-nLPnLD-amc; details: >>30 no inhibition at 30 μM, >30 inhibition between 10 and 50% at 30 μM, read-out: IC50 for sites in 26S proteasomes: Casp-L
Sequence (A0A5F9DQW2 1-212): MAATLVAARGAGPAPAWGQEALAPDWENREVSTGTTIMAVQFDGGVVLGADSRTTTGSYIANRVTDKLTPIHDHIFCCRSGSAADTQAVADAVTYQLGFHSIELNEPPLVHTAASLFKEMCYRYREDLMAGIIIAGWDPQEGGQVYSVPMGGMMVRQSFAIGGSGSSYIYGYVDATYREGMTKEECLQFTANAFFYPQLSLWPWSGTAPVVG
Where a name gives a salt, the structure may show the parent alone.
reported-metric: IC50

compound: CC(=O)N[C@@H](CC(C)C)C(=O)N[C@@H](CC(C)C)C(=O)N[C@@H](CCCNC(=N)N)C(=O)[C@@]1(C)CO1
system-under-test: caspase-like site of 26S proteasomes (Oryctolagus cuniculus)
reported-metric: IC50
meas-value: > 30 µM

Query string: State its IC50 on caspase-like site of 26S proteasomes (Oryctolagus cuniculus): CC(C)C[C@@H](/C=C/S(C)(=O)=O)NC(=O)[C@H](CC(C)C)NC(=O)[C@H](Cc1ccc(N)cc1)NC(=O)[C@H](Cc1ccccc1)N=[N+]=[N-] [Compound 56, N3-Phe-Phe(4-NH2-TFA)-Leu-Leu-VS]
Result string: > 30 µM

Query string: Notebook: pull reported IC50 for caspase-like site of 26S proteasomes (Oryctolagus cuniculus), entry CC(C)C[C@H](NC(=O)[C@H](Cc1ccccc1)N=[N+]=[N-])C(=O)N[C@@H](CC(C)C)C(=O)N[C@H](/C=C/S(C)(=O)=O)Cc1ccncc1
Result string: > 30 µM
